Source of measurements: patent EP4814019A1

Target: T1, …-HLA A0201 complex (human, biotinylated with BirA (site not stated))
T1 construct: Held on streptavidin in the ELISA and in SPR; also called NY-ESO-1 antigen; positive antigen NY-ESO-1
Assay: SPR (BIAcore), biotinylated pMHC on streptavidin-coupled CM5 chip, nanobody as analyte
pKd: −log10 of the molar value.
reportedProperty: pKd

NY-ESO-1-VHH-1 (VHH, Synthetic nanobody from a yeast display library) VHH: QVQLQESGGGLVQAGGSLRLSCAASGTIFHQIDMGWYRQAPGKERELVAAIGTGSSTYYADSVKGRFTISRDNAKNTVYLQMNSLKPEDTAVYYCAAWHYYWGQGTQVTVSS: 7.02
NY-ESO-1-VHH-5 (VHH, Synthetic nanobody from a yeast display library) VHH: QVQLQESGGGLVQAGGSLRLSCAASGNISAVYTMGWYRQAPGKEREFVAAIDYGGSTYYADSVKGRFTISRDNAKNTVYLQMNSLKPEDTAVYYCASYYHGYWGQGTQVTVSS: 7.17

[1] NY-ESO-1-VHH-9 (VHH, Synthetic nanobody from a yeast display library) VHH: QVQLQESGGGLVQAGGSLRLSCAASGYISYLNTMGWYRQAPGKEREFVATIGQGSSTYYADSVKGRFTISRDNAKNTVYLQMNSLKPEDTAVYYCADQLGYWGQGTQVTVSS
[2] NY-ESO-1-VHH-4 (VHH, Synthetic nanobody from a yeast display library) VHH: QVQLQESGGGLVQAGGSLRLSCAASGNIFYPQYMGWYRQAPGKEREFVAAISDGASTYYADSVKGRFTISRDNAKNTVYLQMNSLKPEDTAVYYCADLWYWGQGTQVTVSS
Challenge: Of 1 and 2 , whose reported pKd is numerically smaller? Kindly state the label of the option you pick.
Response given: 1
